Values were extracted from DBAASP.

Assay read-out MIC; system under study: Staphylococcus aureus ATCC 25923.
Output spec: scalar in µM, unitless text.

Check out these entries, answers already filled in.
CC(C)C[C@H](NC(=O)CN)C(=O)N[C@@H](CO)C(=O)N[C@@H](CCCN=C(N)N)C(=O)N[C@@H](CC(C)C)C(=O)N[C@@H](Cc1ccccc1)C(=O)N[C@H](C(=O)N[C@@H](C)C(=O)N[C@@H](CC(C)C)C(=O)N[C@@H](CCCCN)C(=O)O)[C@@H](C)O [GLSRLFTALK]: 14.5
CC[C@H](C)[C@H](NC(=O)[C@H](Cc1c[nH]c2ccccc12)NC(=O)[C@H](CCCCN)NC(=O)[C@H](CC(C)C)NC(=O)[C@@H](NC(=O)[C@H](Cc1c[nH]c2ccccc12)NC(=O)CNC(=O)[C@@H](NC(=O)[C@H](CCCCN)NC(=O)[C@H](CCCCN)NC(=O)[C@H](CC(C)C)NC(=O)[C@@H](N)CCCN=C(N)N)[C@@H](C)CC)C(C)C)C(N)=O [RLKKIGWVLKWI]: 4
CC[C@H](C)[C@H](NC(=O)[C@H](CCCCN)NC(=O)[C@@H](NC(=O)[C@H](Cc1ccccc1)NC(=O)[C@H](C)NC(=O)[C@H](CCCCN)NC(=O)CNC(=O)[C@H](Cc1ccccc1)NC(=O)[C@@H](N)CCCCN)C(C)C)C(=O)N[C@@H](CC(C)C)C(=O)N[C@@H](CCCCN)C(=O)N[C@@H](CCCCN)C(N)=O [KFGKAFVKILKK]: 257
CC(C)C[C@H](NC(=O)[C@@H]1CSSC[C@H](NC(=O)CNC(=O)[C@H](CCCN=C(N)N)NC(=O)[C@H](Cc2ccccc2)NC(=O)[C@H](C)NC(=O)[C@H](C)N)C(=O)N[C@@H](Cc2c[nH]c3ccccc23)C(=O)N[C@@H]([C@@H](C)O)C(=O)N[C@@H](CCCCN)C(=O)N[C@@H](CC(N)=O)C(=O)N[C@@H](Cc2ccc(O)cc2)C(=O)N[C@@H](CO)C(=O)N2CCC[C@H]2C(=O)N[C@@H](CCCCN)C(=O)N2CCC[C@H]2C(=O)N1)C(=O)O [AAFRGCWTKNYSPKPCL]: 51.5

Checklist item: MIC tested on Staphylococcus aureus ATCC 25923, entry CC(C)C[C@H](NC(=O)[C@H](CO)NC(=O)[C@@H](N)CCCCN)C(=O)N[C@H](C(=O)N[C@@H](CCCN=C(N)N)C(=O)N[C@@H](CCCN=C(N)N)C(=O)N[C@@H](Cc1c[nH]c2ccccc12)C(=O)N[C@@H](CCCN=C(N)N)C(=O)N[C@@H](CO)C(=O)N[C@@H](CCCN=C(N)N)C(=O)N[C@@H](Cc1c[nH]c2ccccc12)C(N)=O)C(C)C [KSLVRRWRSRW] , value?
30
